- assay name: chemical genetic growth profiling, strain panel (AID 1159580);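 also: tested at 20 µM; growth read once vehicle control cultures reached saturation at 30 °C; 1 = growth at the plate median or of vehicle wells; lower values mean less growth of the strain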
- condition parameters: S. cerevisiae deletion strains, growth OD, locus YCR088W, strain abp1, hits give low values
About 2,000 (36%) of roughly 5,500 compounds were called active. Roughly 18% stayed inconclusive and do not appear here. The list shows a part of the results.
metric name: normalized growth
I only need the number, thanks.

| compound | normalized growth |
| --- | --- |
| CCCCC(=O)O[C@]1(C(=O)CO)[C@@H](C)CC2C3CCC4=CC(=O)C=C[C@]4(C)[C@@]3(F)C(O)C[C@@]21C (stereo not given in full) | 0.997 |
| O=C(O)C1=CC(=C(c2ccc(O)c(C(=O)O)c2)c2ccc(O)c(C(=O)O)c2)C=CC1=O | 0.985 |

What does the record list as normalized growth for C[C@H]1[C@H](C)CC[C@]2(C(=O)O)CC[C@]3(C)C(=CCC4[C@@]5(C)C[C@@H](O)[C@H](O)[C@@](C)(CO)C5[C@H](O)C[C@]43C)[C@H]12 (stereo not given in full) ? 0.961

----------
- assay name: chemical genetic growth profiling, strain panel (AID 1159580);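 also: tested at 20 µM; growth read once vehicle control cultures reached saturation at 30 °C; 1 = growth at the plate median or of vehicle wells; lower values mean less growth of the strain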
- condition parameters: S. cerevisiae deletion strains, growth OD, locus YJL134W, strain LCB3
The campaign covered roughly 5,500 compounds. About 2,000 (36%) were called active. Roughly 18% stayed inconclusive and do not appear here. Rule as the data show it: active = normalized growth mostly below about 0.91 (no sharp cut-off); inconclusive = no clear call, values can overlap the other calls; inactive = mostly above about 0.92. This is one part of the list.
Can you answer with just one of these options? true (1) (active), false (0) (inactive)

Known results for compounds:
| compound | category label |
| --- | --- |
| C/C=C/CC(C)C(O)C1C(=O)NC(CC)C(=O)N(C)CC(=O)N(C)C(CC(C)C)C(=O)NC(C(C)C)C(=O)N(C)C(CC(C)C)C(=O)NC(C)C(=O)NC(C)C(=O)N(C)C(CC(C)C)C(=O)N(C)C(CC(C)C)C(=O)N(C)C(C(C)C)C(=O)N1C (configuration not stated) | false (0) |
| Cc1c(OCC(F)(F)F)ccnc1CS(=O)c1nc2ccccc2[nH]1 (configuration not stated) | false (0) |
| O=C(O)CN(CCN(CC(=O)O)CC(=O)O)CC(=O)O | false (0) |
| CC(=O)OCC(=O)[C@@]1(O)CCC2C3C[C@H](C)C4=CC(=O)C=CC4(C)C3[C@@H](O)CC21C (some centres not stated) | false (0) |
| COC(=O)NC(=S)Nc1ccccc1NC(=S)NC(=O)OC | false (0) |
| CCC(=O)OCC(=O)[C@@]1(OC(=O)CC)[C@@H](C)CC2C3CCC4=CC(=O)C=C[C@]4(C)C3(F)[C@@H](O)C[C@@]21C (some centres not stated) | false (0) |
| C[C@@H]1CCC2[C@](C)(CO)[C@@H](O)CC[C@]2(C)[C@@]12CC[C@@](CO)(CCO)O2 (some centres not stated) | false (0) |
| C[C@H]1[C@H](C)CC[C@]2(C(=O)O)CC[C@]3(C)C(=CCC4[C@@]5(C)C[C@@H](O)[C@H](O)[C@@](C)(CO)C5[C@H](O)C[C@]43C)[C@H]12 (some centres not stated) | false (0) |

Recorded test outcome, item CC(=O)O[C@@H]1CC2C(C)(C)CCC[C@]2(C)C2CC[C@]3(C)C(=CC(=O)O[C@H]3c3ccoc3)[C@@]21C (some centres not stated) false (0)

Recorded test outcome, item `Cc1cc(N)c2ccccc2[n+]1CCCCCCCCCC[n+]1c(C)cc(N)c2ccccc21` true (1)

Recorded test outcome, item `COc1ccc(-c2cc(=O)c3c(O)cc(O)cc3o2)cc1O` false (0)
